System under test: Mannose-6-phosphate isomerase (Homo sapiens)
Experiment notes: MPI inhibition at elevated mannose 6-phosphate – biochemical, fluorescence intensity, high mannose 6-phosphate, primary screen (AID 1220)
Protocol conditions: recombinant PMI enzyme, coupled fluorescence intensity; at 20 µM
The whole screen tested about 190,000 compounds, of which about 1,300 (0.68%) were called active. No stated cut-off is given here; in the data, active means inhibition above about 50%; inactive means the rest. This is one part of a sample in which actives are shown more often than they occur.
Labels: 1 (yes) = active, 0 (no) = inactive

>  <Input smiles>
N#C/C(=C/c1ccc(-c2ccccc2[N+](=O)[O-])o1)C(N)=O

>  <Assigned class>
1 (yes)

$$$$
>  <Input smiles>
O=C(/C=C/c1ccc(-c2ccccc2[N+](=O)[O-])o1)c1ccccc1

>  <Assigned class>
0 (no)

$$$$
>  <Input smiles>
Clc1ncc(CSc2ccccc2)s1

>  <Assigned class>
0 (no)

$$$$
>  <Input smiles>
CCOC(=O)c1sc2nc(CC(=O)OC)nc(N(C)CCc3ccccn3)c2c1C

>  <Assigned class>
0 (no)

$$$$
>  <Input smiles>
O=C(COC(=O)COc1ccccc1)Nc1ccccc1OC(F)F

>  <Assigned class>
0 (no)

$$$$
>  <Input smiles>
COc1ccc(S(=O)(=O)N(C)CC(=O)Nc2ccc(C(N)=O)cc2)cc1OC

>  <Assigned class>
0 (no)

$$$$

* * *

inhibition reference
System under test: Mannose-6-phosphate isomerase (Homo sapiens) (UniProt P34949)
Sequence (P34949 whole entry, looked up): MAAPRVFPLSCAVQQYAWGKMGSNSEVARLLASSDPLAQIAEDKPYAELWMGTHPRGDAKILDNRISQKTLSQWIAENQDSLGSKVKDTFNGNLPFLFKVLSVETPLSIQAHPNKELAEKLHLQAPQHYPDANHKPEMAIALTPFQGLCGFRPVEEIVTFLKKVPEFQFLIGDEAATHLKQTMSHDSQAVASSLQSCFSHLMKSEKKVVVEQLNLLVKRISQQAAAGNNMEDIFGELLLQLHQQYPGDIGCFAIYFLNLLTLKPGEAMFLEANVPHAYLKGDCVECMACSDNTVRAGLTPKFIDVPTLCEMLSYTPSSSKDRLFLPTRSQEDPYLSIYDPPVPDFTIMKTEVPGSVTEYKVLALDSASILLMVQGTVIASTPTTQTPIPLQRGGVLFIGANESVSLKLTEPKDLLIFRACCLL
Experiment notes: MPI inhibition at elevated mannose 6-phosphate – biochemical, fluorescence intensity, high mannose 6-phosphate, primary screen (AID 1220)
Protocol conditions: recombinant PMI enzyme, coupled fluorescence intensity; at 20 µM; active compounds read high
Among all 190,000 compounds or so, about 1,300 (0.68%) were called active. For the sample, actives were picked, then their nearest neighbours and some compounds at random.

>  <Compound>
CC1(C)Oc2ccc(C(=O)N3CCOCC3)cc2N(CC(=O)Nc2ccccc2)C1=O

>  <inhibition [%]>
6.6

$$$$
>  <Compound>
CCc1sc(C(=O)NCCc2ccc(S(N)(=O)=O)cc2)cc1Br

>  <inhibition [%]>
7.3

$$$$
>  <Compound>
COCCn1c(Cc2ccccc2)nnc1SCC(=O)NC(C)(C)C

>  <inhibition [%]>
-1.6

$$$$
>  <Compound>
CC1CCN(CCNC(=O)CN(C)S(=O)(=O)c2cccc3nsnc23)CC1

>  <inhibition [%]>
0.3

$$$$
>  <Compound>
COC(=O)C/C=C/[C@@H](C)[C@@H](/C=N/OCC[C@@H]1C=C[C@H](OC(C)=O)[C@@H](COC(C)=O)O1)NS(=O)(=O)c1ccc(C)cc1

>  <inhibition [%]>
-6.1

$$$$
>  <Compound>
CS(=O)(=O)c1ccc2nc(N)sc2c1

>  <inhibition [%]>
6.1

$$$$
>  <Compound>
CCn1c(Cc2cccs2)nnc1SCC(=O)NC(C)(C)C

>  <inhibition [%]>
-5.7

$$$$
>  <Compound>
COc1ccc(N(CC(=O)NCc2ccccc2OC)S(=O)(=O)c2ccccc2[N+](=O)[O-])c(OC)c1

>  <inhibition [%]>
-1.5

$$$$
>  <Compound>
CCOc1cc2[nH]c(=O)n(CCCN3CCN(c4ccc(OC)cc4)CC3)c(=O)c2cc1OCC

>  <inhibition [%]>
21.4

$$$$
>  <Compound>
NNC(=O)c1cc2c(s1)CCCCCC2

>  <inhibition [%]>
-2.3

$$$$
>  <Compound>
CC1=C(C)CC(C(=O)N2CCN(Cc3ccccc3)CC2)C(C(=O)O)C1 (configuration not stated)

>  <inhibition [%]>
9.2

$$$$
>  <Compound>
Cc1ccc(N=Cc2cc3c(cc2O)OC(N)=C(C#N)C3c2ccccc2)cc1 (configuration not stated)

>  <inhibition [%]>
10.5

$$$$
>  <Compound>
c1ccc(Nc2cccc(Nc3ccccc3)c2)cc1

>  <inhibition [%]>
29.3

$$$$
>  <Compound>
CCOC(=O)c1c(NC(=O)c2c(C(=O)O)cccc2[N+](=O)[O-])sc(C)c1C

>  <inhibition [%]>
8.7

$$$$
>  <Compound>
COc1ccc(C2CC2/C(=N/OC(=O)c2cccs2)c2ccccc2)cc1 (configuration not stated)

>  <inhibition [%]>
4.3

$$$$
>  <Compound>
CCN1/C(=C/c2ccc3cc(C)ccc3[n+]2CC)Sc2ccccc21

>  <inhibition [%]>
-14.4

$$$$
>  <Compound>
CCc1ccc2c(c1)c1nc(C)sc1n2CC

>  <inhibition [%]>
55.2

$$$$
